assay: Selectivity index, ratio of CC50 for mouse J774.A1 cells to IC50 for amastigote form of Leishmania donovani MHOM/IN/80/Dd8; assay type: toxicity; settings: read-out: Ratio CC50/IC50
Threshold 5. selectivity ratio below it: yes (1). selectivity ratio at it or above: no (0).

1) O=C(Nc1ccccc1)c1c([N+](=O)[O-])noc1-c1ccc(Cl)cc1: no (0)
2) CC(C)CCNC(=O)c1c([N+](=O)[O-])noc1-c1ccc([N+](=O)[O-])cc1: yes (1)
3) COC(=O)c1c([N+](=O)[O-])noc1-c1ccccc1Br: yes (1)
4) COC(=O)c1c([N+](=O)[O-])noc1-c1ccccc1Cl: yes (1)
5) COc1ccc(CNC(=O)c2c([N+](=O)[O-])noc2-c2ccc(Cl)cc2)cc1: no (0)
6) COc1cccc(CNC(=O)c2c([N+](=O)[O-])noc2-c2ccc(Cl)cc2)c1: no (0)
7) O=C(Nc1ccccc1)c1c([N+](=O)[O-])noc1-c1ccc(Cl)cc1Cl: no (0)
8) O=C(NCc1cccc(Cl)c1Cl)c1c([N+](=O)[O-])noc1-c1ccc(Cl)cc1Cl: no (0)
9) COC(=O)c1c(NCCCNc2ccnc3cc(Cl)ccc23)noc1-c1ccc(Cl)cc1Cl: no (0)
10) COC(=O)c1c(NCCCCNc2ccnc3cc(Cl)ccc23)noc1-c1ccc(Cl)cc1Cl: yes (1)

---

assay: Cytotoxicity against mouse J774A1 cells assessed as reduction in cell viability incubated for 48 hrs by MTT assay; assay type: cell-based, J774.A1
Threshold 80 µM. CC50 at 48 h below it: fulfilled. CC50 at 48 h at it or above: not fulfilled.

1) COC(=O)c1c(NCCCCNc2ccnc3cc(Cl)ccc23)noc1-c1ccc(Cl)cc1Cl: not fulfilled
2) COC(=O)c1c(NCCCN2CCOCC2)noc1-c1ccc(Cl)cc1Cl: fulfilled
3) COC(=O)c1c([N+](=O)[O-])noc1-c1ccccc1Br: fulfilled
4) COC(=O)c1c([N+](=O)[O-])noc1-c1ccc(Cl)cc1Cl: fulfilled
5) O=C(Nc1ccccc1)c1c([N+](=O)[O-])noc1-c1ccc(Cl)cc1: not fulfilled
6) COC(=O)c1c(NCCNc2cc(C(F)(F)F)nc3c(C(F)(F)F)cccc23)noc1-c1ccc(Cl)cc1Cl: not fulfilled
7) COc1ccc(CNC(=O)c2c([N+](=O)[O-])noc2-c2ccc(Cl)cc2)cc1: not fulfilled
8) COc1ccc(CNC(=O)c2c([N+](=O)[O-])noc2-c2ccc([N+](=O)[O-])cc2)cc1: fulfilled
9) COC(=O)c1c(NCc2ccc(OC)cc2OC)noc1-c1ccc(Cl)cc1Cl: fulfilled
10) COC(=O)c1c(NCCCNc2ccnc3cc(Cl)ccc23)noc1-c1ccc(Cl)cc1Cl: fulfilled
11) O=C(NCCN1CCOCC1)c1c([N+](=O)[O-])noc1-c1ccc([N+](=O)[O-])cc1: fulfilled
12) CCCCCCCCCCCCCCCCOP(=O)([O-])OCC[N+](C)(C)C: fulfilled
13) COc1cccc(CNC(=O)c2c([N+](=O)[O-])noc2-c2ccc(Cl)cc2)c1: fulfilled
14) O=C(NCc1cccc(Br)c1)c1c([N+](=O)[O-])noc1-c1ccc(Cl)cc1Cl: fulfilled
15) COC(=O)c1c(NCc2ccc(OC)c(OC)c2)noc1-c1ccc(Cl)cc1Cl: fulfilled
16) COC(=O)c1c(NCCNc2ccnc3cc(Cl)ccc23)noc1-c1ccc(Cl)cc1Cl: fulfilled
17) COC(=O)c1c(NCCNc2cc(C(F)(F)F)nc3c(C(F)(F)F)cccc23)noc1-c1ccc([N+](=O)[O-])cc1: fulfilled

---

test: Cytotoxicity against mouse J774A1 cells assessed as reduction in cell viability incubated for 48 hrs by MTT assay; type: cell-based, J774.A1
Assay metric: log10 of CC50 at 48 h (log10 of the value in µM)

1. COC(=O)c1c([N+](=O)[O-])noc1-c1cc2c(cc1[N+](=O)[O-])OCO2: 2.05
2. COC(=O)c1c(NCc2ccccc2)noc1-c1ccc([N+](=O)[O-])cc1: 1.93
3. CC(C)CCNC(=O)c1c([N+](=O)[O-])noc1-c1ccc([N+](=O)[O-])cc1: 1.83
4. COC(=O)c1c(NCc2ccc(C(C)(C)C)cc2)noc1-c1cc2c(cc1[N+](=O)[O-])OCO2: 0.87
5. COC(=O)c1c(NCCNc2ccnc3cc(Cl)ccc23)noc1-c1ccc([N+](=O)[O-])cc1: 0.58
6. COC(=O)c1c(NCCNc2ccnc3cc(Cl)ccc23)noc1-c1cc2c(cc1[N+](=O)[O-])OCO2: 0.57
7. COC(=O)c1c(NCc2ccccc2)noc1-c1ccc(Cl)cc1Cl: 1.73
8. COC(=O)c1c(NCCNc2ccnc3cc(Cl)ccc23)noc1-c1ccccc1[N+](=O)[O-]: 1.87
9. COC(=O)c1c(NCCCN2CCOCC2)noc1-c1ccc([N+](=O)[O-])cc1: 1.86
10. COC(=O)c1c([N+](=O)[O-])noc1-c1cc(-c2ccccc2Cl)n(-c2ccccc2)n1: 1.90
11. COc1ccc(CNC(=O)c2c([N+](=O)[O-])noc2-c2ccc(Cl)cc2)cc1OC: 2.03
12. COC(=O)c1c(NCCCCNc2ccnc3cc(Cl)ccc23)noc1-c1cc2c(cc1[N+](=O)[O-])OCO2: 1.83
13. COC(=O)c1c(NCCCCNc2ccnc3cc(Cl)ccc23)noc1-c1ccccc1[N+](=O)[O-]: 1.89
14. COc1cccc(CNC(=O)c2c([N+](=O)[O-])noc2-c2ccc(Cl)cc2Cl)c1: 1.79
15. COC(=O)c1c(NCCCNc2ccnc3cc(Cl)ccc23)noc1-c1ccc([N+](=O)[O-])cc1: 2.03
16. COC(=O)c1c([N+](=O)[O-])noc1-c1cccc(-c2ncoc2C)c1: 1.26
17. COC(=O)c1c(NCc2ccc(Cl)cc2)noc1-c1cc2c(cc1[N+](=O)[O-])OCO2: 1.52
18. COC(=O)c1c(NCCCCNc2ccnc3cc(Cl)ccc23)noc1-c1ccc([N+](=O)[O-])cc1: 2.13
19. COC(=O)c1c(NCCNc2ccnc3cc(Cl)ccc23)noc1-c1ccccc1F: 0.53

---

system: Leishmania amazonensis; assay: Antileishmanial activity against promastigote form of Leishmania amazonensis; type: functional, organism-based
Assay metric: IC50 (µM)

1. COc1cc(-c2cc(-c3ccc4c(c3)OCO4)no2)cc(OC)c1OC: 18.3
2. COc1cc(-c2cc(-c3cc(OC)c(OC)c(OC)c3)on2)cc(OC)c1OC: 18.3

---

// selectivity ratio lookup, one value per entry
assay: Selectivity index, ratio of CC50 for mouse J774.A1 cells to IC50 for amastigote form of Leishmania donovani MHOM/IN/80/Dd8; type: toxicity; details: read-out: Ratio CC50/IC50
Assay metric: selectivity ratio

1) COC(=O)c1c(NCCCN2CCOCC2)noc1-c1cc2c(cc1[N+](=O)[O-])OCO2: 3.82
2) COC(=O)c1c(NCc2ccc(Cl)cc2)noc1-c1ccc(Cl)cc1Cl: 56.6
3) COC(=O)c1c([N+](=O)[O-])noc1-c1cccc(-c2cnco2)c1: 3.6
4) COC(=O)c1c([N+](=O)[O-])noc1-c1cc(-c2ccccc2Cl)n(-c2ccccc2)n1: 3.76
5) O=C(c1c([N+](=O)[O-])noc1-c1ccc([N+](=O)[O-])cc1)N1CCOCC1: 4.22
6) COC(=O)c1c(NCCCN2CCOCC2)noc1-c1ccc([N+](=O)[O-])cc1: 15.8
7) COC(=O)c1c([N+](=O)[O-])noc1-c1cccc(-c2ncoc2C)c1: 2.5

---

test: Selectivity index, ratio of CC50 for mouse J774.A1 cells to IC50 for amastigote form of Leishmania donovani MHOM/IN/80/Dd8; assay type: toxicity; conditions: read-out: Ratio CC50/IC50
Assay metric: selectivity ratio

1) COC(=O)c1c(NCCNc2cc(C(F)(F)F)nc3c(C(F)(F)F)cccc23)noc1-c1ccc(Cl)cc1Cl: 4.86
2) COC(=O)c1c(NCc2ccc(OC)c(OC)c2)noc1-c1ccc(Cl)cc1Cl: 3
3) COC(=O)c1c(NCCNc2ccnc3cc(Cl)ccc23)noc1-c1ccccc1[N+](=O)[O-]: 3.94
4) COC(=O)c1c(NCc2ccc(C(C)(C)C)cc2)noc1-c1ccc([N+](=O)[O-])cc1: 9.69
